Provenance of the data: ChEMBL document CHEMBL1156113

- Procedure Summary: microbe, parasite or virus in culture
- Type: functional, Mycobacterium bovis BCG str. Tokyo 172
- Assay Setup: Mycobacterium tuberculosis variant bovis BCG
- Description: Antibacterial activity against Mycobacterium bovis BCG str. Tokyo 172 by broth dilution method
Quick rule for you: MIC under 0.8 µg/mL gets rule met, anything else gets rule not met.

[in] In plain terms, does NNC(=O)c1ccncc1 [ISONIAZID] come in under 0.8 µg/mL for MIC?
[out] rule met

[in] In plain terms, does CN[C@@H]1[C@H](O[C@H]2[C@H](O[C@H]3[C@H](O)[C@@H](O)[C@H](N=C(N)N)[C@@H](O)[C@@H]3N=C(N)N)O[C@@H](C)[C@]2(O)C=O)O[C@@H](CO)[C@H](O)[C@H]1O [STREPTOMYCIN] come in under 0.8 µg/mL for MIC?
[out] rule met

[in] In plain terms, does Nc1ccc(C(=O)O)c(O)c1 [AMINOSALICYLIC ACID] come in under 0.8 µg/mL for MIC?
[out] rule not met

[in] In plain terms, does CC[C@@H](CO)NCCN[C@@H](CC)CO [ETHAMBUTOL] come in under 0.8 µg/mL for MIC?
[out] rule not met

[in] In plain terms, does CC(=O)N[C@@H]1[C@@H](O)[C@@H](O)[C@@H](CO)O[C@H]1SC(=S)N(C)C come in under 0.8 µg/mL for MIC?
[out] rule not met

[in] In plain terms, does CC(=O)N[C@@H]1[C@@H](O)[C@H](O)[C@@H](CSC(=S)N(C)C)O[C@H]1SC(=S)N(C)C come in under 0.8 µg/mL for MIC?
[out] rule not met

[in] In plain terms, does CC(=O)N[C@H]1[C@@H](O)[C@H](O)[C@@H](CO)O[C@@H]1SC(=S)N(C)C come in under 0.8 µg/mL for MIC?
[out] rule not met

[in] In plain terms, does CNC.Cl [DIMETHYLAMINE HCL] come in under 0.8 µg/mL for MIC?
[out] rule not met

[in] In plain terms, does CO[C@H]1/C=C/O[C@@]2(C)Oc3c(C)c(O)c4c(O)c(c(/C=N/N5CCN(C)CC5)c(O)c4c3C2=O)NC(=O)/C(C)=C\C=C\[C@H](C)[C@H](O)[C@@H](C)[C@@H](O)[C@@H](C)[C@H](OC(C)=O)[C@@H]1C [RIFAMPIN] come in under 0.8 µg/mL for MIC?
[out] rule met

[in] In plain terms, does CC(=O)N[C@@H]1[C@@H](OC(C)=O)[C@H](OC(C)=O)[C@@H](COC(C)=O)O[C@H]1SC(=S)N(C)C come in under 0.8 µg/mL for MIC?
[out] rule not met

[in] In plain terms, does CC(=O)N[C@H]1[C@H](OC(C)=O)O[C@H](COC(C)=O)[C@@H](OC(C)=O)[C@@H]1OC(C)=O come in under 0.8 µg/mL for MIC?
[out] rule not met

[in] In plain terms, does NC[C@H]1O[C@H](O[C@H]2[C@H](O)[C@@H](O[C@H]3O[C@H](CO)[C@@H](O)[C@H](N)[C@H]3O)[C@H](N)C[C@@H]2N)[C@H](O)[C@@H](O)[C@@H]1O [KANAMYCIN] come in under 0.8 µg/mL for MIC?
[out] rule met

[in] In plain terms, does CC(=O)N[C@@H]1[C@@H](O)[C@H](O)[C@@H](CO)O[C@H]1SC(=S)N(C)C come in under 0.8 µg/mL for MIC?
[out] rule not met

[in] In plain terms, does CNC [DIMETHYLAMINE] come in under 0.8 µg/mL for MIC?
[out] rule not met
